Each item that follows carries a reported relative viability.
- Test system: RERF-LC-KJ
- test_description: relative viability (nuclei count vs DMSO), 5 days (fraction); higher = more cells survive
- condition_context: first compound 0.002 µM
measurement_type: relative viability

compound: CC(=O)O[C@@]12CO[C@@H]1C[C@H](O)[C@@]1(C)C(=O)[C@H](O)C3=C(C)[C@@H](OC(=O)[C@H](O)[C@@H](NC(=O)OC(C)(C)C)c4ccccc4)C[C@@](O)([C@@H](OC(=O)c4ccccc4)[C@H]21)C3(C)C [Docetaxel] + O=C(CCCCCCC(=O)Nc1ccccc1)NO [Vorinostat] (partner 1 µM)
study_target: RERF-LC-KJ
quantitative_readout: 0.368
//
compound: CC(=O)O[C@@]12CO[C@@H]1C[C@H](O)[C@@]1(C)C(=O)[C@H](O)C3=C(C)[C@@H](OC(=O)[C@H](O)[C@@H](NC(=O)OC(C)(C)C)c4ccccc4)C[C@@](O)([C@@H](OC(=O)c4ccccc4)[C@H]21)C3(C)C [Docetaxel] + CC(=O)Nc1cccc(-n2c(=O)n(C3CC3)c(=O)c3c(Nc4ccc(I)cc4F)n(C)c(=O)c(C)c32)c1 [Trametinib] (partner 0.02 µM)
study_target: RERF-LC-KJ
quantitative_readout: 0.39
//
compound: CC(=O)O[C@@]12CO[C@@H]1C[C@H](O)[C@@]1(C)C(=O)[C@H](O)C3=C(C)[C@@H](OC(=O)[C@H](O)[C@@H](NC(=O)OC(C)(C)C)c4ccccc4)C[C@@](O)([C@@H](OC(=O)c4ccccc4)[C@H]21)C3(C)C [Docetaxel] + Nc1ncn([C@H]2C[C@H](O)[C@@H](CO)O2)c(=O)n1 [Decitabine] (partner 2 µM)
study_target: RERF-LC-KJ
quantitative_readout: 0.232
//
compound: CC(=O)O[C@@]12CO[C@@H]1C[C@H](O)[C@@]1(C)C(=O)[C@H](O)C3=C(C)[C@@H](OC(=O)[C@H](O)[C@@H](NC(=O)OC(C)(C)C)c4ccccc4)C[C@@](O)([C@@H](OC(=O)c4ccccc4)[C@H]21)C3(C)C [Docetaxel] + CC(=O)c1c(C)c2cnc(Nc3ccc(N4CCNCC4)cn3)nc2n(C2CCCC2)c1=O [Palbociclib] (partner 0.5 µM)
study_target: RERF-LC-KJ
quantitative_readout: 0.381
//
compound: CC(=O)O[C@@]12CO[C@@H]1C[C@H](O)[C@@]1(C)C(=O)[C@H](O)C3=C(C)[C@@H](OC(=O)[C@H](O)[C@@H](NC(=O)OC(C)(C)C)c4ccccc4)C[C@@](O)([C@@H](OC(=O)c4ccccc4)[C@H]21)C3(C)C [Docetaxel] + COc1cc2c(Oc3ccc(NC(=O)C4(C(=O)Nc5ccc(F)cc5)CC4)cc3F)ccnc2cc1OCCCN1CCOCC1 [Foretinib] (partner 0.25 µM)
study_target: RERF-LC-KJ
quantitative_readout: 0.402
//
compound: CC(=O)O[C@@]12CO[C@@H]1C[C@H](O)[C@@]1(C)C(=O)[C@H](O)C3=C(C)[C@@H](OC(=O)[C@H](O)[C@@H](NC(=O)OC(C)(C)C)c4ccccc4)C[C@@](O)([C@@H](OC(=O)c4ccccc4)[C@H]21)C3(C)C [Docetaxel] + C[C@@H](Oc1cc(-c2cnn(C3CCNCC3)c2)cnc1N)c1c(Cl)ccc(F)c1Cl [Crizotinib] (partner 1 µM)
study_target: RERF-LC-KJ
quantitative_readout: 0.509
